Origin of the recorded values: BigSolDB 2.1

conditions: in toluene, 273.2 K
Quantity kind: solubility (mole fraction)

smiles_record=CC(C)(C)NSc1nc2ccccc2s1 quantity_kind="solubility (mole fraction)" obs_value=0.0273

----------
settings: in methanol, 298.2 K
Quantity kind: solubility (mole fraction)

smiles_record=CC(C)(C)NSc1nc2ccccc2s1 quantity_kind="solubility (mole fraction)" obs_value=0.0148

----------
settings: in ethanol, 313.2 K
Quantity kind: solubility (mole fraction)

smiles_record=CC(C)(C)NSc1nc2ccccc2s1 obs_value=0.0419

----------
conditions: in tert-butylamine, 273.2 K
Quantity kind: solubility (mole fraction)

smiles_record=CC(C)(C)NSc1nc2ccccc2s1 quantity_kind="solubility (mole fraction)" obs_value=0.0952
